// E. faecalis ATCC 29212 MIC records

CC[C@H]1OC(=O)[C@H](C)[C@@H](O[C@H]2C[C@@](C)(OC)[C@@H](OC(=O)CCNCCSc3ccc4c(=O)c(C(=O)O)cn(CC)c4c3)[C@H](C)O2)[C@@H](C)[C@@H](O[C@@H]2O[C@H](C)C[C@H](N(C)C)[C@H]2O)[C@](C)(O)C[C@@H](C)CN(C)[C@H](C)[C@@H](O)[C@]1(C)O [Example 1]    ≤ 1 µg/mL
CC[C@H]1OC(=O)[C@H](C)[C@@H](OC2C[C@@](C)(OC)[C@@H](OC(=O)CCOCCOc3cc4c(=O)c(C(=O)O)cn(C5CC5)c4cc3Cl)[C@H](C)O2)[C@H](C)[C@@H](O[C@@H]2O[C@H](C)C[C@H](N(C)C)[C@H]2O)[C@](C)(O)C[C@@H](C)CN(C)[C@H](C)[C@@H](OC)[C@]1(C)O (stereo partly drawn) [Example 34]    ≤ 1 µg/mL

Please give the measured MIC for this molecule: CC[C@H]1OC(=O)[C@H](C)[C@@H](O[C@H]2C[C@@](C)(OC)[C@@H](OC(=O)CCOCCOc3ccc4c(c3)c(=O)c(C(=O)O)cn4C3CC3)[C@H](C)O2)[C@H](C)[C@@H](O[C@@H]2O[C@H](C)C[C@H](N(C)C)[C@H]2O)[C@](C)(O)C[C@@H](C)CN(C)[C@H](C)[C@H]2OC(=O)O[C@@]21C [Example 26]
≤ 1 µg/mL

src = patent US20070213283A1
